experimental target: T1, VEGFA-165 (R&D systems 293-VE/CF) (human, UniProt P15692-4 27-191)
T1 construct: Coated on ELISA plates or added in solution to reporter cells; also called human VEGF; human VEGFA
T1 sequence (P15692 other isoform, or with tags, fused parts or gaps limits assumed): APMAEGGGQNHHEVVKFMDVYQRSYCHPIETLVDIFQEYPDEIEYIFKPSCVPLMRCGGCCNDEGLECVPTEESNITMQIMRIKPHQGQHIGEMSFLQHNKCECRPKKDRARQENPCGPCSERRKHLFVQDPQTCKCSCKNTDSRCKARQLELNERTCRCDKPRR
method description: ELISA as in Example 5, VEGFA-165 coated, anti-HA detection
Quick reference: EC50 of the listed items.
Give the number; nM is assumed, so skip it.

These solved cases illustrate the format of a correct answer.
binder	endpoint name	unit abbreviation	measured value
bi-valent Nb24, product expressed by pGCB108-ITR130-AMDF1Nb24-5-(G4S)2-Nb24-5-HA (VHH, Two copies of Nb24 in a single polypeptide; supernatant of transfected Expi293 cells; also called 24-5-G4S2-24-5) EVQLQESGGGLVQPGGSLRLSCTASGFTFDDPDVGWFRQAPGNECELVSTISKDGSTYYTDSVKGRFTISRDYAKNTVYLQMNSLRAEDTAVYYCAADSNPIAPIRTCLGWYNYWGQGTLVTVSSGGGGSGGGGSEVQLQESGGGLVQPGGSLRLSCTASGFTFDDPDVGWFRQAPGNECELVSTISKDGSTYYTDSVKGRFTISRDYAKNTVYLQMNSLRAEDTAVYYCAADSNPIAPIRTCLGWYNYWGQGTLVTVSSYPYDVPDYA	EC50	nM	376
bi-valent Nb24, product expressed by pGCB108-ITR130-AMDF1Nb24-5-(G4S)3-Nb24-5-HA (VHH, Two copies of Nb24 in a single polypeptide; supernatant of transfected Expi293 cells; also called 24-5-G4S3-24-5) EVQLQESGGGLVQPGGSLRLSCTASGFTFDDPDVGWFRQAPGNECELVSTISKDGSTYYTDSVKGRFTISRDYAKNTVYLQMNSLRAEDTAVYYCAADSNPIAPIRTCLGWYNYWGQGTLVTVSSGGGGSGGGGSGGGGSEVQLQESGGGLVQPGGSLRLSCTASGFTFDDPDVGWFRQAPGNECELVSTISKDGSTYYTDSVKGRFTISRDYAKNTVYLQMNSLRAEDTAVYYCAADSNPIAPIRTCLGWYNYWGQGTLVTVSSYPYDVPDYA	EC50	nM	346
bi-valent Nb24, product expressed by pGCB108-ITR130-AMDF1Nb24-5-(G4S)4-Nb24-5-HA (VHH, Two copies of Nb24 in a single polypeptide; supernatant of transfected Expi293 cells; also called 24-5-G4S4-24-5) EVQLQESGGGLVQPGGSLRLSCTASGFTFDDPDVGWFRQAPGNECELVSTISKDGSTYYTDSVKGRFTISRDYAKNTVYLQMNSLRAEDTAVYYCAADSNPIAPIRTCLGWYNYWGQGTLVTVSSGGGGSGGGGSGGGGSGGGGSEVQLQESGGGLVQPGGSLRLSCTASGFTFDDPDVGWFRQAPGNECELVSTISKDGSTYYTDSVKGRFTISRDYAKNTVYLQMNSLRAEDTAVYYCAADSNPIAPIRTCLGWYNYWGQGTLVTVSSYPYDVPDYA	EC50	nM	464

Now for another entry.
*Q* Recorded EC50 of bi-valent Nb24, product expressed by pGCB108-ITR130-AMDF1Nb24-5-(G4S)1-Nb24-5-HA (VHH, Two copies of Nb24 in a single polypeptide; supernatant of transfected Expi293 cells; also called 24-5-G4S1-24-5) EVQLQESGGGLVQPGGSLRLSCTASGFTFDDPDVGWFRQAPGNECELVSTISKDGSTYYTDSVKGRFTISRDYAKNTVYLQMNSLRAEDTAVYYCAADSNPIAPIRTCLGWYNYWGQGTLVTVSSGGGGSEVQLQESGGGLVQPGGSLRLSCTASGFTFDDPDVGWFRQAPGNECELVSTISKDGSTYYTDSVKGRFTISRDYAKNTVYLQMNSLRAEDTAVYYCAADSNPIAPIRTCLGWYNYWGQGTLVTVSSYPYDVPDYA , please.
*A* 400
